# Test system: A549
# method: Cytotoxicity against human A549 cells after 6 days by MTT assay
# Type: functional
# condition summary: A549, 144 h, read-out: ED50 (the source's name)
readout label: EC50

1) CC1=C2CC/C(C)=C/CC[C@]3(C)O[C@H]3CC/C(C)=C/[C@@H]2OC1=O: 10.4 mg/L
2) CC1=C2CC/C(C)=C/CC[C@]3(C)O[C@H]3CC/C(C)=C/[C@@H]2OC1: 15.7 mg/L
3) C/C1=C\CCC(C)(O)C2C=C(C(C)(C)O)C(C/C(C)=C/CC1)O2 (configuration not stated): 1.7 mg/L
4) C/C1=C\C=C(\C(C)(C)O)CC[C@@]2(C)O[C@@H]2CC/C(C)=C/CC1: 1.03 mg/L
5) CC1=C2CC/C(C)=C/CC[C@@](C)(O)[C@@H](O)CC/C(C)=C/[C@@H]2OC1=O: 24.7 mg/L
6) COC(C)(C)/C1=C/[C@H]2O[C@]2(C)CC/C=C(\C)CC[C@H]2O[C@]2(C)CC1: > 50 mg/L
7) C/C1=C\C=C(\C(C)(C)O)C(O)C/C(C)=C/CC/C(C)=C/CC1 (configuration not stated): 20.2 mg/L
